Data credit: patent US11040035B2

tested_target: AHR (Homo sapiens, UniProt P35869)
Sequence (P35869 11-848): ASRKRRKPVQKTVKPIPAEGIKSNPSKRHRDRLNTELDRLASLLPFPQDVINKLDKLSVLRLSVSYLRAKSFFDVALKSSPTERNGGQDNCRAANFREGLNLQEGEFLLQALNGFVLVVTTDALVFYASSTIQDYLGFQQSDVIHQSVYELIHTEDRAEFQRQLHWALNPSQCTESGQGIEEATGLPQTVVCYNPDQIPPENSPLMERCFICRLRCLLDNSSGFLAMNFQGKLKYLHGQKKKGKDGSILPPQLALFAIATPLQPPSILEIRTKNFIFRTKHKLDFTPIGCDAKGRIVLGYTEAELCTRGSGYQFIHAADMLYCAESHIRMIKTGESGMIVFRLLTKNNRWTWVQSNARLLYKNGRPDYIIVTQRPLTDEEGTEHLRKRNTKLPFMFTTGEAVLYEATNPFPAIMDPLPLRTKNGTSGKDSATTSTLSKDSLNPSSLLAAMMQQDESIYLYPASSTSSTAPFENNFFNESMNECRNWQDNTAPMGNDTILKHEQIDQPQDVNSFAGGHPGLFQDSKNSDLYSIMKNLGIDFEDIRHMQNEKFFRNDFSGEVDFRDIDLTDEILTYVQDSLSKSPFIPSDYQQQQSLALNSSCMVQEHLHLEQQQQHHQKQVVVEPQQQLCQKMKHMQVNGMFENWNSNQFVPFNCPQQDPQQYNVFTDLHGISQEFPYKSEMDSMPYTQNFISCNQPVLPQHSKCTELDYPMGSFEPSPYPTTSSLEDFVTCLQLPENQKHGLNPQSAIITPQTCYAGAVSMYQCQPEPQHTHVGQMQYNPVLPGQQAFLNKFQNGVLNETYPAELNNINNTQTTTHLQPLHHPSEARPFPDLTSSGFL
assay_text: In vitro assay 2: agonism in human cell line (transactivation assay)
settings: Assay 2: AHR-luc Hum Agonism IC50 [M], no kynurenic acid, 20 hours, firefly luciferase
recorded_metric: IC50

Sample records with IC50:
compound: CC(C)(O)CNC(=O)c1cc(-c2ccc(Cl)cc2)nn(-c2cccc(F)c2)c1=O [Example 188]
recorded_metric: IC50
measured_value: > 2e-05 M

compound: CC(O)C(C)NC(=O)c1cc(-c2ccc(Cl)cc2)nn(-c2cccc(F)c2)c1=O (stereo not shown) [Example 131]
recorded_metric: IC50
measured_value: > 2e-05 M

compound: Cc1cccc(-n2nc(-c3ccc(Cl)cc3)cc(C(=O)NCC(O)C(F)(F)F)c2=O)c1 (stereo not shown) [Example 366]
recorded_metric: IC50
measured_value: > 2e-05 M

In the following, a different compound is considered.
Exam item: // Input: CC(C)C(O)CNC(=O)c1cc(-c2ccc(C(F)(F)F)cc2)nn(-c2cccc(F)c2)c1=O (racemic) [Example 241] . Output its IC50 only.
Marked response: 1.16e-07 M

###

tested_target: AHR (Homo sapiens, UniProt P35869)
assay_text: In vitro assay 1: antagonism in human cell line (transactivation assay, kynurenic acid prestimulated)
settings: Assay 1: AHR-luc Hum Antagonism IC50 [M], 150 μM kynurenic acid, 20 hours, firefly luciferase
recorded_metric: IC50 (M)

molecule: O=C(N[C@H]1CCCC[C@@H]1O)c1cc(-c2ccc(Cl)cc2)nn(-c2cccc(F)c2)c1=O (single isomer, unassigned) [Example 119]
IC50 (M): 4.51e-07
--
molecule: O=C(NC(CO)C1CCCO1)c1cc(-c2ccc(C(F)(F)F)cc2)nn(-c2cccc(F)c2)c1=O (single isomer, unassigned) [Example 339]
IC50 (M): 4.59e-08
--
molecule: CC(NC(=O)c1cc(-c2ccc(Cl)cc2)nn(-c2cccc(F)c2)c1=O)C(O)CO (single isomer, unassigned) [Example 346]
IC50 (M): 1.98e-07
--
molecule: CC(C)[C@@H](CO)NC(=O)c1cc(-c2ccc(C(F)F)cc2)nn(-c2cccc(F)c2)c1=O [Example 91]
IC50 (M): 4.44e-09
--
molecule: CC[C@@H](CO)NC(=O)c1cc(-c2ccc(Cl)cc2)nn(-c2cccc(F)c2)c1=O [Example 21]
IC50 (M): 1.89e-08

[A] Cc1ccc(-c2cc(C(=O)NCC(C)O)c(=O)n(-c3cccc(F)c3)n2)cc1 (single isomer, unassigned; enantiomer 1) [Example 14]
[B] O=C(NC(CO)CO)c1cc(-c2ccc(C(F)(F)F)cc2)nn(-c2cccc(F)c2)c1=O [Example 250]
Exam item: // compare measured IC50 between A and B ; output the lower one Could you answer with the label of the item you picked?
Marked response: B
(B: 4.69e-08 M, A: 1.75e-07 M)

###

tested_target: AHR (Homo sapiens, UniProt P35869)
assay_text: In vitro assay 1: antagonism in human cell line (transactivation assay, kynurenic acid prestimulated)
settings: Assay 1: AHR-luc Hum Antagonism IC50 [M], 150 μM kynurenic acid, 20 hours, firefly luciferase
recorded_metric: IC50 (M)

molecule: O=C(NC(CO)C1CCC1)c1cc(-c2ccc(Cl)cc2)nn(-c2cccc(F)c2)c1=O (racemic) [Example 209]
recorded_metric: IC50
measured_value: 3.27e-08
//
molecule: O=C(NC1(CO)CCC1)c1cc(-c2ccc(Cl)cc2)nn(-c2cccc(F)c2)c1=O
recorded_metric: IC50
measured_value: 8.72e-08
//
molecule: O=C(N[C@@H]1CCCC[C@@H]1O)c1cc(-c2ccc(Cl)cc2)nn(-c2cccc(F)c2)c1=O (single isomer, unassigned) [Example 105]
recorded_metric: IC50
measured_value: 1.51e-07
//
molecule: O=C(NC(CO)C1CCOC1)c1cc(-c2ccc(Cl)cc2)nn(-c2cccc(F)c2)c1=O (single isomer, unassigned) [Example 40]
recorded_metric: IC50
measured_value: 1.17e-07
//
molecule: CC(CCO)NC(=O)c1cc(-c2ccc(C(F)(F)F)cc2)nn(-c2cccc(F)c2)c1=O (single isomer, unassigned; (-)) [Example 255]
recorded_metric: IC50
measured_value: 1.09e-07
//
molecule: O=C(N[C@@H]1CCCC(F)(F)[C@H]1O)c1cc(-c2ccc(Cl)cc2)nn(-c2cccc(F)c2)c1=O (single isomer, unassigned) [Example 275]
recorded_metric: IC50
measured_value: 1.81e-08
//
molecule: O=C(NC(CCO)C(F)(F)F)c1cc(-c2ccc(Cl)cc2)nn(-c2cccc(F)c2)c1=O (single isomer, unassigned; (+)) [Example 343]
recorded_metric: IC50
measured_value: 1.49e-08
//
molecule: O=C(NC(CO)C1CC1)c1cc(-c2ccc(C(F)(F)F)cc2)nn(-c2cccc(F)c2)c1=O (single isomer, unassigned; (-)) [Example 351]
recorded_metric: IC50
measured_value: 4.84e-09
//
molecule: CC(C)(O)CNC(=O)c1cc(-c2ccc(C(F)(F)F)cc2)nn(-c2cccc(F)c2)c1=O
recorded_metric: IC50
measured_value: 1.44e-08
//
molecule: NC(=O)CC(CO)NC(=O)c1cc(-c2ccc(Cl)cc2)nn(-c2cccc(F)c2)c1=O (stereo not drawn)
recorded_metric: IC50
measured_value: 4.98e-07

[a] C[C@@H](O)CCNC(=O)c1cc(-c2ccc(Cl)cc2)nn(-c2cccc(F)c2)c1=O
[b] COCC(O)CNC(=O)c1cc(-c2ccc(Cl)cc2)nn(-c2cccc(F)c2)c1=O (single isomer, unassigned) [Example 33]
[c] CC(C)[C@@H](CO)NC(=O)c1cc(-c2ccc(Cl)c(F)c2)nn(-c2cccc(F)c2)c1=O
[d] O=C(NC(CO)C1CCOC1)c1cc(-c2ccc(Cl)cc2)nn(-c2cccc(F)c2)c1=O (stereo not drawn) [Example 38]
[e] CC(C)(O)[C@@H](NC(=O)c1cc(-c2ccc(OC(F)(F)F)cc2)nn(-c2cccc(F)c2)c1=O)C1CC1
Exam item: In this exercise, place the 5 molecules in ascending sequence of their recorded IC50. The labels, placed in the requested order, form the answer.
Marked response: e, d, c, b, a
(e: 9.6e-09 M, d: 3.87e-08 M, c: 9.39e-08 M, b: 2.11e-07 M, a: 3.85e-07 M)

[I] O=C(N[C@H]1CC[C@@H]1O)c1cc(-c2ccc(Cl)cc2)nn(-c2cccc(F)c2)c1=O (single isomer, unassigned) [Example 335]
[II] O=C(NC[C@H]1C[C@H](O)C1)c1cc(-c2ccc(Cl)cc2)nn(-c2cccc(F)c2)c1=O
Exam item: Rank I against II by their IC50 values and give the higher one. Could you answer with the label of the item you picked?
Marked response: I
(I: 4.05e-07 M, II: 2.21e-07 M)

###

tested_target: AHR (Homo sapiens)
assay_text: In vitro assay 1: antagonism in human cell line (transactivation assay, kynurenic acid prestimulated)
settings: Assay 1: AHR-luc Hum Antagonism IC50 [M], 150 μM kynurenic acid, 20 hours, firefly luciferase
recorded_metric: IC50 (M)

Sample records with IC50:
compound: O=C(NC(CO)CCO)c1cc(-c2ccc(C(F)(F)F)cc2)nn(-c2cccc(F)c2)c1=O (racemic)
unit_abbrev: M
IC50: 5.51e-08
--
compound: Cc1ccc(-c2cc(C(=O)NC(CO)C(C)C)c(=O)n(-c3cccc(F)c3)n2)cc1C (centres unmarked)
unit_abbrev: M
IC50: 1.03e-07
--
compound: Cc1ccc(-c2cc(C(=O)N[C@@H](CO)C(C)C)c(=O)n(-c3ccccc3)n2)cc1
unit_abbrev: M
IC50: 2.11e-06
--
compound: O=C(NC[C@@H](O)CO)c1cc(-c2ccc(C(F)(F)F)cc2)nn(-c2cccc(F)c2)c1=O
unit_abbrev: M
IC50: 6.04e-08
--
compound: CC(C)(O)C(NC(=O)c1cc(-c2ccc(Cl)cc2)nn(-c2cccc(F)c2)c1=O)C(F)(F)F (centres unmarked) [Example 277]
unit_abbrev: M
IC50: 4.94e-09

[a] O=C(NC(CO)C1CCOC1)c1cc(-c2ccc(Cl)cc2)nn(-c2cccc(F)c2)c1=O (single isomer, unassigned) [Example 41]
[b] O=C(NCC(O)C(F)(F)F)c1cc(-c2ccc(C(F)F)cc2)nn(-c2cccc(F)c2)c1=O (single isomer, unassigned) [Example 96]
Exam item: // compare measured IC50 between a and b ; output the lower one Could you answer with the label of the item you picked?
Marked response: b
